Test: ATG_AP_2_CIS: Attagene CIS-FACTORIAL HepG2 Assay for human Activator Protein 2 (AP-2) (AID 2282932)
Details: HepG2 AP-2 cis-reporter, Attagene transcription factor profiling; actives raise or lower the signal
The source made the active and inactive calls. How the source made its calls: active means hit-call score of the fitted dose curve at least 0.9, where 1 is the maximum; inactive means score below 0.9.
Measured Attribute: outcome

These solved cases illustrate the format of a correct answer.
compound="COCC(C)N(C(=O)CCl)c1c(C)csc1C (stereo not given)" reported_measurement=inactive
compound="CCOC(=O)C(C)OC(=O)c1cc(Oc2ccc(C(F)(F)F)cc2Cl)ccc1[N+](=O)[O-] (stereo not given)" reported_measurement=inactive
compound=CCOc1nc(F)cc2nc(S(=O)(=O)Nc3c(Cl)cccc3Cl)nn12 reported_measurement=inactive
compound=COc1cc(Cl)c(OC)cc1Cl reported_measurement=inactive
compound="CCCC(=NOCC)C1=C(O)CC(CC(C)SCC)CC1=O (stereo not given)" reported_measurement=inactive
compound=Cc1nc(N(C)C)nc(OC(=O)N(C)C)c1C reported_measurement=inactive

// outcome value for CC1(C)C(C(=O)OC(C#N)c2cccc(Oc3ccccc3)c2)C1(C)C (stereo not given) : inactive

Summary for this compound, `COP(=S)(OC)Oc1ccc([N+](=O)[O-])c(C)c1` : outcome is inactive

For reference, reported outcome for `CSC(=O)c1c(C(F)F)nc(C(F)(F)F)c(C(=O)SC)c1CC(C)C` stands at inactive

Measured outcome, `CCNC(=O)NC(=O)C(C#N)=NOC` : inactive

Input CCC(C)n1c(=O)[nH]c(C)c(Br)c1=O (stereo not given) . Output outcome: inactive

# outcome (compound: `CCN(CC)c1nc(C)cc(OP(=S)(OC)OC)n1` ) is inactive

Per the records, this compound ( `CC(C)NC(=O)N1CC(=O)N(c2cc(Cl)cc(Cl)c2)C1=O` ) has outcome equal to inactive

For reference, reported outcome for `CS(=O)(=O)c1cc(C(F)(F)F)ccc1C(=O)c1cnoc1C1CC1` stands at inactive

Lookup result for `CC1(C)CON(Cc2ccccc2Cl)C1=O` ; measured outcome: inactive

Per the records, this compound ( CC(C)C1(C)N=C(c2ncccc2C(=O)O)NC1=O (stereo not given) ) has outcome equal to inactive

// recorded outcome for `C=C(C)CN(CC)c1c([N+](=O)[O-])cc(C(F)(F)F)cc1[N+](=O)[O-]` : inactive

Form: compound = `COC(=O)NC(=S)Nc1ccccc1NC(=S)NC(=O)OC` ; outcome = inactive

Per the record, COCC(=O)N(c1c(C)cccc1C)C(C)C(=O)OC (stereo not given) has outcome of inactive

outcome reported for this compound `CC(C)N1C(=O)c2ccccc2NS1(=O)=O` : inactive

Consider O=C1C2CC=CCC2C(=O)N1SC(Cl)(Cl)Cl (stereo not given) . Its measured outcome is inactive

outcome recorded for this compound, COCc1cnc(C2=NC(C)(C(C)C)C(=O)N2)c(C(=O)O)c1 (stereo not given) , is inactive

Memo: `OC(c1ccc(Cl)cc1)(c1ccc(Cl)cc1)C(Cl)(Cl)Cl` , reported outcome: inactive

Summary for this compound, `CN=C=S` : outcome is inactive

Summary for this compound, `Nc1c(Cl)c(Cl)nc(C(=O)O)c1Cl` : outcome is inactive

Each recorded value in this set is attributed to PubChem BioAssay (EPA / NIEHS).
